target: human HER3 endogenously expressed on human cancer cells (SK-Br-3, BT-474, MCF7) (human, UniProt P21860 20-1342); assay: cell-based or functional assay
Measured Quantity: MCF7 pHER3 % inhibition (%)

MOR12606 (antibody, human IgG1, kappa, V domains shown, Tested as IgG) VH: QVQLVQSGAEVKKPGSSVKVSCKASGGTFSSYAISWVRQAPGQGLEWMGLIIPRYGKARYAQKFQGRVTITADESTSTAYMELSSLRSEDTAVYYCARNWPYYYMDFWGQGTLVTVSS VL: DIVLTQSPATLSLSPGERATLSCRASQNIVFNLAWYQQKPGQAPRLLIYDASNRATGVPARFSGSGSGTDFTLTISSLEPEDFAVYYCQQTKSKPSPTFGQGTKVEIKR
87
MOR13667 (antibody, human IgG1, lambda, V domains shown) VH: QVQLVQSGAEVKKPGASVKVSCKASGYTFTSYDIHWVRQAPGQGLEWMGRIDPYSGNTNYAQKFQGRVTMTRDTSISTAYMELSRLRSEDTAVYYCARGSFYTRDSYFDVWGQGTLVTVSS VL: DIALTQPASVSGSPGQSITISCTGTSSDVGTYNQVSWYQQHPGKAPKLMIYGVSKRPSGVSNRFSGSKSGNTASLTISGLQAEDEADYYCQAWDYRQTIVFGGGTKLTVLG
72
MOR14533 (antibody, human IgG1, kappa, V domains shown, Tested as IgG) VH: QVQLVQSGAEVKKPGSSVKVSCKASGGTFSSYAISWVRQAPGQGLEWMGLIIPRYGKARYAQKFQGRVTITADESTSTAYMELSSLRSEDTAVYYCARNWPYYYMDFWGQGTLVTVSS VL: EIVLTQSPATLSLSPGERATLSCRASQNIVFNLAWYQQKPGQAPRLLIYDASNRATGIPARFSGSGSGTDFTLTISSLEPEDFAVYYCQQTKSKPSPTFGQGTKVEIKR
67
